- Test system: M. smegmatis ΔrrnB 1491C (16S rRNA position 1491 C, eukaryotic mitochondrial ribosome)
- assay_details: MIC, recombinant M. smegmatis with mutant ribosomes 1491C
- Assay type: cell-based, Mycobacterium smegmatis
- test_conditions: M. smegmatis ΔrrnB 1491C mutant ribosomes; 72 h at 37° C.
- Description: The strain used for introduction/selection of mutational alterations was a genetically modified derivative of Mycobacterium smegmatis carrying a single functional chromosomal rRNA operon (Sander et al. Mol. Microbiol. 1996, 22: 841-848). This strain, termed M. smegmatis rrn^−, allowed for the selection of mutational rRNA gene alterations using a plasmid carrying the rRNA gene with the respective mutational alteration.) […]
endpoint: minimal inhibitory concentrations ΔrrnB 1491C

Here's what some known entries look like.
# molecule, target, observed_measurement
records = [
    ("NC[C@@H]1O[C@H](O[C@H]2[C@@H](O)[C@H](O[C@@H]3[C@@H](O)[C@H](N)C[C@H](N)[C@H]3O[C@H]3O[C@@H]4CO[C@@H](c5ccccc5)O[C@H]4[C@H](O)[C@H]3N)O[C@@H]2CO)[C@H](N)[C@@H](O)[C@@H]1O", "M. smegmatis ΔrrnB 1491C (16S rRNA position 1491 C, eukaryotic mitochondrial ribosome)", ">512 µg/mL"),
    ("CC(=O)O.CC(=O)O.CC(=O)O.CC(=O)O.COc1cccc(C2OCC3OC(OC4C(N)CC(N)C(O)C4OC4OC(CO)C(OC5OC(CN)C(O)C(O)C5N)C4O)C(N)C(O)C3O2)c1 (stereo not shown)", "M. smegmatis ΔrrnB 1491C (16S rRNA position 1491 C, eukaryotic mitochondrial ribosome)", ">512 µg/mL"),
]

# ---- query molecule ----
Please list minimal inhibitory concentrations ΔrrnB 1491C recorded for the molecule NC[C@@H]1O[C@H](O[C@H]2[C@@H](O)[C@H](O[C@@H]3[C@@H](O)[C@H](N)C[C@H](N)[C@H]3O[C@H]3O[C@H](CN)[C@@H](O)[C@H](O)[C@H]3N)O[C@@H]2CO)[C@H](N)[C@@H](O)[C@@H]1O [Neomycin B, reference compound] 16 to 32 µg/mL

---

- Test system: AG013 Staph. epi. clinical isolate
- assay_details: Standard MIC assay, AG013
- Type: cell-based, Staphylococcus epidermidis
endpoint: Minimal inhibitory concentrations AG013

Here's what some known entries look like.
# compound, endpoint, observed_measurement
measured = [
    ("NC[C@@H]1O[C@H](O[C@H]2[C@@H](O)[C@H](O[C@@H]3[C@@H](O)[C@H](N)C[C@H](N)[C@H]3O[C@H]3O[C@@H]4COC(C=Cc5ccccc5)O[C@H]4[C@H](O)[C@H]3N)O[C@@H]2CO)[C@H](N)[C@@H](O)[C@@H]1O (stereo partly drawn)", "Minimal inhibitory concentrations AG013", "4 to 8 µg/mL"),
    ("NC[C@@H]1O[C@H](O[C@H]2[C@@H](O)[C@H](O[C@@H]3[C@@H](O)[C@H](N)C[C@H](N)[C@H]3O[C@H]3O[C@@H]4CO[C@@H](c5ccc(Cl)cc5)O[C@H]4[C@H](O)[C@H]3N)O[C@@H]2CO)[C@H](N)[C@@H](O)[C@@H]1O", "Minimal inhibitory concentrations AG013", "8 µg/mL"),
    ("NC[C@@H]1O[C@H](O[C@H]2[C@@H](O)[C@H](O[C@@H]3[C@@H](O)[C@H](N)C[C@H](N)[C@H]3O[C@H]3O[C@@H]4CO[C@@H](c5ccc6ccccc6c5)O[C@H]4[C@H](O)[C@H]3N)O[C@@H]2CO)[C@H](N)[C@@H](O)[C@@H]1O", "Minimal inhibitory concentrations AG013", "1 µg/mL"),
    ("NC[C@@H]1O[C@H](O[C@H]2[C@@H](O)[C@H](O[C@@H]3[C@@H](O)[C@H](N)C[C@H](N)[C@H]3O[C@H]3O[C@H](CO)[C@@H](OCCCc4ccccc4)[C@H](O)[C@H]3N)O[C@@H]2CO)[C@H](N)[C@@H](O)[C@@H]1O [Compound 19c, 4′-p-(3-phenylpropyl)paromomycin]", "Minimal inhibitory concentrations AG013", "4 to 8 µg/mL"),
]

Please list Minimal inhibitory concentrations AG013 recorded for the compound NC[C@@H]1O[C@H](O[C@H]2[C@@H](O)[C@H](O[C@@H]3[C@@H](O)[C@H](N)C[C@H](N)[C@H]3O[C@H]3O[C@@H]4CO[C@@H](c5ccccc5)O[C@H]4[C@H](O)[C@H]3N)O[C@@H]2CO)[C@H](N)[C@@H](O)[C@@H]1O 8 to 16 µg/mL

Please list Minimal inhibitory concentrations AG013 recorded for the compound NC[C@@H]1O[C@H](O[C@H]2[C@@H](O)[C@H](O[C@@H]3[C@@H](O)[C@H](N)C[C@H](N)[C@H]3O[C@H]3O[C@H](CO)[C@@H](OCc4ccc(Cl)cc4)[C@H](O)[C@H]3N)O[C@@H]2CO)[C@H](N)[C@@H](O)[C@@H]1O [Compound 19a, 4′-p-chlorobenzylparomomycin] 4 µg/mL

Please list Minimal inhibitory concentrations AG013 recorded for the compound NC[C@@H]1O[C@H](O[C@H]2[C@@H](O)[C@H](O[C@@H]3[C@@H](O)[C@H](N)C[C@H](N)[C@H]3O[C@H]3O[C@@H]4CO[C@@H](c5ccc(C(F)(F)F)cc5)O[C@H]4[C@H](O)[C@H]3N)O[C@@H]2CO)[C@H](N)[C@@H](O)[C@@H]1O 4 to 8 µg/mL

Please list Minimal inhibitory concentrations AG013 recorded for the compound NC[C@@H]1O[C@H](O[C@H]2[C@@H](O)[C@H](O[C@@H]3[C@@H](O)[C@H](N)C[C@H](N)[C@H]3O[C@H]3O[C@@H]4CO[C@@H](CCc5ccccc5)O[C@H]4[C@H](O)[C@H]3N)O[C@@H]2CO)[C@H](N)[C@@H](O)[C@@H]1O 4 to 8 µg/mL
